Data credit: patent EP1673349B1

Test system: HDAC3
Assay: In vitro HDAC assay, HDAC3
Format: biochemical
Conditions: Table 5; Free base
OBSERVABLE: IC50 (nM)
Give bare numbers, in nM.

ITEM SMILES: COc1cc(Cn2c(CCc3ccccc3)nc3cc(/C=C/C(=O)NO)ccc32)cc(OC)c1OC
TARGET OF ASSAY: HDAC3
UNITS SYMBOL: nM
IC50: 64

Turning now to a further molecule:
Lab entry: HDAC3 assay, molecule `O=C(/C=C/c1ccc2c(c1)nc(CCc1ccccc1)n2CCN1CCCCC1)NO` , IC50 = 56

----------
Would you kindly list pIC50 for each of these compounds?
Target: HDAC1 enzyme (Homo sapiens)
Sequence (Q13547 whole entry): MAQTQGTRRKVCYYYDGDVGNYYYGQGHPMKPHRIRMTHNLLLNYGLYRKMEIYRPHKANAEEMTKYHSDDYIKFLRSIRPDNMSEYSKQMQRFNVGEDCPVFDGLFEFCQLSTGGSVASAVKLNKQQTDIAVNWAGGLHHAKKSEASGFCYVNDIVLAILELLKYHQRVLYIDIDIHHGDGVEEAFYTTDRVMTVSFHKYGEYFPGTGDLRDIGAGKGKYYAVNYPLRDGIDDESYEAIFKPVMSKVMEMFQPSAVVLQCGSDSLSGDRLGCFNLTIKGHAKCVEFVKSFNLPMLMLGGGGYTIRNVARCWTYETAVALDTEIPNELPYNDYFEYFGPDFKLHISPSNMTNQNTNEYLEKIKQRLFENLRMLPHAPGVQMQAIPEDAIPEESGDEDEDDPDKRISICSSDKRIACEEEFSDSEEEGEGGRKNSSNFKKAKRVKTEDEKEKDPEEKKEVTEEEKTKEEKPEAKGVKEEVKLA
Experiment: In vitro HDAC assay (BIOMOL fluorescent-based HDAC activity assay), HDAC1
Format: biochemical
Settings: Table 3; read-out: HDAC1 Enzyme Activity IC50
Numbers only, as −log10 of the molar value.

Sample answers from the record:
COMPOUND: COc1cc(Cn2c(CCc3ccccc3)nc3cc(C4CC4C(=O)NO)ccc32)cc(OC)c1OC (centres unmarked) [Compound 88]
pIC50: 6.53
//
COMPOUND: CN(C)CC(C)(C)Cn1c(CCc2ccccc2)nc2cc(/C=C/C(=O)NO)ccc21 [Compound 17]
pIC50: 7.62
//
COMPOUND: O=C(/C=C/c1ccc2c(c1)nc(CCc1ccccc1)n2C1CCN(Cc2ccccc2)CC1)NO [Compound 76]
pIC50: 5.99
//
COMPOUND: O=C(NO)c1ccc2c(c1)nc(CCc1ccccc1)n2CCCO [Compound 40]
pIC50: 5.48
//
COMPOUND: CN(C)CC(C)(C)Cn1c(CCc2ccc(F)cc2)nc2cc(/C=C/C(=O)NO)ccc21 [Compound 84]
pIC50: 7.27
//
COMPOUND: CCn1c(CN(Cc2ccccc2)Cc2ccccc2)nc2cc(/C=C/C(=O)NO)ccc21 [Compound 68]
pIC50: 6.53
//
COMPOUND: O=C(/C=C/c1ccc2c(c1)nc(-c1ccccn1)n2CCCO)NO [Compound 13]
pIC50: 6.41
//
COMPOUND: CC(Cc1nc2cc(/C=C/C(=O)NO)ccc2n1CCc1cccnc1)c1ccccc1 (centres unmarked) [Compound 41]
pIC50: 6.71
//
COMPOUND: Cn1c(CN(Cc2ccccc2)Cc2ccccc2)nc2cc(/C=C/C(=O)NO)ccc21 [Compound 61]
pIC50: 6.71
//
COMPOUND: O=C(/C=C/c1ccc2c(c1)nc(CCc1ccccc1)n2CCCn1ccnc1)NO [Compound 56]
pIC50: 6.80

For each entry beneath this line, provide reported pIC50.
1. COCCCn1c(CCc2ccccc2)nc2cc(/C=C/C(=O)NO)ccc21 [Compound 15]
2. CN1CCN(CCCn2c(CCc3ccccc3)nc3cc(/C=C/C(=O)NO)ccc32)CC1 [Compound 81]
3. CCn1c(CCNC(=O)Cc2ccccc2)nc2cc(/C=C/C(=O)NO)ccc21 [Compound 70]
4. O=C(/C=C/c1ccc2c(c1)nc(CCc1ccccc1)n2CCc1ccccn1)NO [Compound 18]
5. Cn1c(CNC(=O)Cc2ccc(F)cc2)nc2cc(/C=C/C(=O)NO)ccc21 [Compound 69]
6. C=CCn1c(CCc2ccccc2)nc2cc(/C=C/C(=O)NO)ccc21 [Compound 79]

Response:
1. 6.69
2. 5.80
3. 6.03
4. 6.36
5. 6.84
6. 5.90

What the record says about CCn1c(CCNS(=O)(=O)c2ccccc2)nc2cc(/C=C/C(=O)NO)ccc21 [Compound 71] : pIC50 is 6.78
